Measured pIC50, listed per entry.
# Test system: HCT116 cells
# Experiment Description: Chemosensitivity MTT assay in HCT116 cells
# Type: cell-based, human
# Conditions: Homo sapiens, HCT-116; HCT116 cell viability, MTT, with erlotinib (20 µM); read-out: IC50 Erlotinib
pIC50: −log10 of the molar value.
Measurement Type: pIC50

>>> observed_value("CC1(C(=O)O)CCC2(C)CCC3(C)C(=CC(=O)C4C5(C)CCC(OC6OC(C(=O)O)C(O)C(O)C6OC6OCC(O)C(O)C6O)C(C)(C)C5CCC43C)C2C1 (stereo not drawn)")
4.45
>>> observed_value("CC1OC(OC2C(OC3C(OC4CCC5(C)C(CCC6(C)C5C(=O)C=C5C7CC(C)(C(=O)O)CCC7(C)CCC56C)C4(C)C)OC(C(=O)O)C(O)C3O)OC(CO)C(O)C2O)C(O)C(O)C1O (stereo not drawn)")
4.72
>>> observed_value("CC1(C(=O)O)CCC2(C)CCC3(C)C(=CC(=O)C4C5(C)CCC(OC6OC(C(=O)O)C(O)C(O)C6OC6OCC(O)(CO)C6O)C(C)(C)C5CCC43C)C2C1 (stereo not drawn)")
4.20
>>> observed_value("CC1(C(=O)O)CCC2(C)CCC3(C)C(=CC(=O)C4C5(C)CCC(OC6OC(C(=O)O)C(O)C(O)C6O)C(C)(C)C5CCC43C)C2C1 (stereo not drawn) [Glycyrrhetinic acid-3-O-mono-glucuronide]")
4.30
>>> observed_value("CC1(C(=O)O)CCC2(C)CCC3(C)C(=CC(=O)C4C5(C)CCC(OC6OC(C(=O)O)C(O)C(O)C6OC6OC(CO)C(O)C(O)C6O)C(C)(C)C5CCC43C)C2C1 (stereo not drawn)")
4.80
>>> observed_value("CC1(C)[C@@H](O[C@H]2O[C@H](C(=O)O)[C@@H](O)[C@H](O)[C@H]2O[C@@H]2O[C@H](C(=O)O)[C@@H](O)[C@H](O)[C@H]2O)CC[C@]2(C)[C@H]3C(=O)C=C4[C@@H]5C[C@@](C)(C(=O)O)CC[C@]5(C)CC[C@@]4(C)[C@]3(C)CC[C@@H]12")
4.28

====

# Study System: heme-dimerized PGRMC1 (Homo sapiens)
# Construct: human PGRMC1 intracellular domain residues 43-195; GST (N, cleaved yes); made in house; host or cells: E. coli BL21 (DE3)
# Sequence (O00264 43-195): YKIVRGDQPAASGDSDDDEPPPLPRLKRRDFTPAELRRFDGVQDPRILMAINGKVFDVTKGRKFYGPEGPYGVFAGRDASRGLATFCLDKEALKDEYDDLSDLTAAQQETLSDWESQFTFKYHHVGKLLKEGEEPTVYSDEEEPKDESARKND
# Experiment Description: ITC binding to heme-dimerized PGRMC1
# Conditions: ITC, 298 K, 50 mM phosphate pH 7.0, heme-dimerized PGRMC1 (WT)
Measurement Type: KD

>>> observed_value("CC12CCC3(C)C(=CC(=O)C4C5(C)CCC(OC6OC(C(=O)O)C(O)C(O)C6OC6OC(C(=O)O)C(O)C(O)C6O)C(C)(C)C5CCC43C)C1CC(C)(C(=O)O)C(O)C2 (stereo not shown) [Macedonoside A]")
"No Binding"
>>> observed_value("CC1(C)[C@@H](OC(=O)CCC(=O)O)CC[C@]2(C)[C@H]3C(=O)C=C4[C@@H]5C[C@@](C)(C(=O)O)CC[C@]5(C)CC[C@@]4(C)[C@]3(C)CC[C@@H]12 [Carbenoxolone]")
"No Binding"
>>> observed_value("CC1(C(=O)O)CCC2(C)CCC3(C)C(=CC(=O)C4C5(C)CCC(OC6OC(C(=O)O)C(O)C(O)C6OC6OC(C(=O)O)C(O)C(O)C6O)C(C)(C)C5CCC43C)C2C1 (stereo not shown) [Licorice-saponin H2]")
"No Binding"
